Target: T1, human IL-1β (human, UniProt P01584 117-269)
T1 construct: antigen of the ABT2 dAbs; also called hIL-1β; IL-1 beta
Assay: IC50 column of Table 63; receptor binding assay presumed
metric: pIC50
One number for each entry, as −log10 of the molar value.

ABT2-65-127 (other, VH dAb) VH: EVQLLESGGGLVQPGGSLRLSCVASGFTFEDYQMGWVRQAPGKGLEWVTSISAMGNRTYYADSVKGRFTISRDDSKNTLYLQMNSLRAEDTAVYYCAQNLVRLGRSRWMFDYWGQGTLVTVSS :: 8.26

Could you now look at the following binder, please?
Please fill in: pIC50 reported for ABT2-65-8 (other) VH: EVQLLESGGGLVQPGGSLRLSCAASGFTFEDYQMGWVRQAPGKGLEWVSSISAMGNRTYYADSVKGRFTISRDDSKNTLYLQMNSLRAEDTAVYYCAQNLVRMDSRRWMFDYWGQGTLVTVSS = 8.00
